biological target: Cbl-b (residues 36-427) (Homo sapiens, UniProt Q13191)
Sequence (Q13191 36-427): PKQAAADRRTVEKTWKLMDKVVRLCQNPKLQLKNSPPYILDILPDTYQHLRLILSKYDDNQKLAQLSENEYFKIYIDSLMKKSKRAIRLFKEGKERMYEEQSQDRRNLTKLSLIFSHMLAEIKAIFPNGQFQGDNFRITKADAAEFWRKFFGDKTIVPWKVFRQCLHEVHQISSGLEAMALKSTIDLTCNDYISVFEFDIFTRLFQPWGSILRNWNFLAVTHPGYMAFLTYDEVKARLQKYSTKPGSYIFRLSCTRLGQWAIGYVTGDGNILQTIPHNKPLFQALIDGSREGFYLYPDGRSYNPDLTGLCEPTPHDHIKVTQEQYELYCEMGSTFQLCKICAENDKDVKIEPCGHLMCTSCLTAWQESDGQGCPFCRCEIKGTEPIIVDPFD

compound: Cn1cnnc1CC1(c2cccc(N3Cc4c(cc(CN5CC[C@H](F)C5)cc4C4CC4)C3=O)c2)COC1
Kd: < 100 nM

compound: CC(O)C1CN(C(=O)c2ccnc(C(=O)Nc3cccc([C@H](C)Cc4nncn4C)c3)c2)C1 (stereo partly drawn)
Kd: < 100 nM

compound: C[C@H](Cc1nncn1C)c1cc(N[C@H]2CCOC2)nc(N2Cc3c(cccc3C(F)(F)F)C2=O)c1 (stereo in doubt)
Kd: 301 to 1000 nM

compound: C[C@H](Cc1nncn1C)c1cccc(N2Cc3c(cc(CN4CC(F)C4)cc3C(F)(F)F)C2=O)c1
Kd: < 100 nM

compound: Cn1cnnc1[C@@H]1C[C@@H]1c1cccc(N2Cc3c(cccc3C(F)(F)F)C2=O)c1
Kd: 301 to 1000 nM

compound: C[C@H](Sc1nncn1C)c1cccc(NC(=O)c2cccc(-c3ccnn3C)c2)c1
Kd: 3000 to 10000 nM
